System: AS120
Assay: qHTS profiling for inhibitors of Plasmodium falciparum proliferation (AID 504749); also: nearly all actives have a fitted effect of over 60% in size
Settings: P. falciparum in erythrocytes, SYBR Green DNA, 72 h; series mostly up to 28.7 µM
Method: NIH National Institute of Allergy and Infectious Diseases [NIAID] NIH Chemical Genomics Center [NCGC] […] Because mature erythrocytes lack DNA, only Plasmodium-derived DNA is detected. NCGC Assay Protocol Summary: The SYBR Green viability assay was adapted from a method described previously (Plouffe et al., 2008). […] The following morning, fluorescence intensity at 485(14) nm excitation and 535(25) nm emission wavelengths was measured on an EnVision (Perkin Elmer) plate reader. […]
Inconclusive results are not listed. The source made the active and inactive calls. Calls follow the shape of the dose curve; as a rule, active = well fitted inhibition curve with a large enough effect; inconclusive = small, poorly fitted or top-dose-only effect; inactive = flat fitted curve, though single readings scatter.
Please state which outcome applies, choosing from t for active, f for inactive

// below: answered compounds
compound | label-value
N/C(=N\N=C\c1ccc(Cl)cc1)N/N=C/c1ccc(Cl)cc1 | t
CC(=O)O[C@H]1C[C@@H]2CC[C@@H]3[C@H](CC[C@@]4(C)[C@H]3C[C@H]([N+]3(C)CCCCC3)[C@@H]4OC(C)=O)[C@@]2(C)C[C@@H]1N1CCCCC1 | f
O=S(=O)(O)c1ccc(O)cc1 | f
CCCCc1cc2ccccc2c(OCCN(C)C)n1 | f
NS(=O)(=O)Cc1noc2ccccc12 | f

*Q* Please let me know the test result on file for CC(C)CCCC(C)N (stereo not given) .
*A* f

*Q* Please let me know the test result on file for `CCOC(=O)Nc1ccc2c(c1)N(C(=O)CCN1CCOCC1)c1ccccc1S2` .
*A* f

*Q* Please let me know the test result on file for `CCCCN=C(N)N=C(N)N` .
*A* f

*Q* Please let me know the test result on file for `CC(C)(C)NC[C@H](O)COc1cccc2c1CCCC2=O` .
*A* f

*Q* Please let me know the test result on file for `Cc1cc(NS(=O)(=O)c2ccc(N)cc2)nc(C)n1` .
*A* f

====

Test: qHTS of pediatric cancer cell lines to identify multiple opportunities for drug repurposing: Primary screen for OHS-50 cells (AID 1347103); also: nearly all actives have a fitted effect of over 40% in size
Conditions: OHS-50 osteosarcoma viability, CellTiter-Glo luminescence, 48 h; series mostly up to 57.3 µM
Protocol: Drug repurposing or repositioning has been offered as a strategy for drug development in oncology programs. […] [1] Shen, M et al. Quantitative high-throughput phenotypic screening of pediatric cancer cell lines identifies multiple opportunities for drug repurposing. […] Cells were assayed in growth media at a density of 500-1,000 cells/well. […] After a 15 min incubation at room temperature, samples were analyzed for luminescence intensity using a ViewLux High-throughput CCD imager equipped with clear filters.
Inconclusive results are not listed. Activity calls are given as the source filed them. Calls come from the whole dose curve; as a rule, active = well fitted cell-killing curve with a large enough effect; inconclusive = small, poorly fitted or top-dose-only effect; inactive = no such curve, though single readings can be large or run the other way.
Please state which outcome applies, choosing from active, inactive

// below: answered compounds
compound | label-value
C/C=C/C=N/NC(=O)c1ccncc1 | inactive
CC(=O)N[C@@H](CCC(=O)O)C(=O)O | inactive

*Q* Please let me know the test result on file for CCC(Cc1c(I)cc(I)c(N)c1I)C(=O)O (stereo not given) .
*A* inactive

*Q* Please let me know the test result on file for `O=C(Nc1cccc(C2=NCCN2)c1)Nc1cccc(C2=NCCN2)c1` .
*A* inactive

*Q* Please let me know the test result on file for `CCCCCCCCOc1ccc(C(=O)c2ccccc2)c(O)c1` .
*A* inactive

*Q* Please let me know the test result on file for `CC[C@]12CCCN3CCc4c(n(c5ccccc45)C(=O)C1)[C@@H]32` .
*A* active

====

test: Primary qHTS for inhibitors of nuclear receptor binding SET domain protein 2 (NSD2) in an isogenic RCH-ACV NSD2 p.E1099K mutant (9B) (AID 1645876); details: RCH-ACV (leukaemia line) NSD2 E1099K (9B) viability, CellTiter-Glo, 72 h; series mostly up to 44.9 µM; also: nearly all actives have a fitted effect of over 70% in size
Results filed as inconclusive are left out. Activity calls are given as the source filed them. Calls come from the whole dose curve; as a rule, active = well fitted inhibition curve with a large enough effect; inconclusive = small, poorly fitted or top-dose-only effect; inactive = flat fitted curve, though single readings scatter.
Please state which outcome applies, choosing from active, inactive

chemical-string | label-value
O=C(Nc1cccc(C2=NCCN2)c1)Nc1cccc(C2=NCCN2)c1 | active
O=C(Nc1ccc([N+](=O)[O-])cc1)Nc1ccc([N+](=O)[O-])cc1 | inactive
NCCNC(=O)c1ccc(Cl)cn1 | inactive

*Q* Please let me know the test result on file for `OC[C@H]1O[C@@H]2O[C@H]3[C@H](O)[C@@H](O)[C@@H](O[C@H]4[C@H](O)[C@@H](O)[C@@H](O[C@H]5[C@H](O)[C@@H](O)[C@@H](O[C@H]6[C@H](O)[C@@H](O)[C@@H](O[C@H]7[C@H](O)[C@@H](O)[C@@H](O[C@H]8[C@H](O)[C@@H](O)[C@@H](O[C@H]1[C@H](O)[C@H]2O)O[C@@H]8CO)O[C@@H]7CO)O[C@@H]6CO)O[C@@H]5CO)O[C@@H]4CO)O[C@@H]3CO` .
*A* inactive

*Q* Please let me know the test result on file for `NC(=O)n1c(O)c(C(=O)c2cccs2)c2cc(Cl)ccc21` .
*A* inactive

*Q* Please let me know the test result on file for `CCNC(=O)NCc1cccc(Cl)c1` .
*A* inactive

====

molecular target: Rap guanine nucleotide exchange factor 3 (Homo sapiens); test: Confirmatory qHTS for agonist of cAMP-regulated guanine nucleotide exchange factor 3 (EPAC1) (AID 1645881); conditions: EPAC1 Rap1B BODIPY-GDP exchange fluorescence, 100% = cAMP control response; series mostly up to 154 µM;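 also: EPAC1 catalysed release of BODIPY-GDP from Rap1B seen as fluorescence loss; nearly all actives have a fitted effect of over 75% in size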
Records with an inconclusive call do not appear. The source made the active and inactive calls. Calls come from the whole dose curve; as a rule, active = well fitted activation curve with a large enough effect; inconclusive = small, poorly fitted or top-dose-only effect; inactive = no such curve, though single readings can be large or run the other way.
reported-endpoint: outcome

# annotated cases, reported outcome shown
molecule | measured
C=C1c2cccc(O)c2C(O)=C2C(=O)[C@]3(O)C(O)=C(C(N)=O)C(=O)[C@@H](N(C)C)[C@@H]3[C@@H](O)[C@H]12 | inactive
CCc1oc2ccccc2c1C(=O)c1cc(Br)c(O)c(Br)c1 | inactive
Oc1ccc(Cl)cc1Cc1cc(Cl)ccc1O | inactive
CC(C)=CCOc1ccc(/C=C/C(=O)c2ccc(OCC=C(C)C)cc2OCC(=O)O)cc1 | inactive
COc1ccc(C(=O)c2ccccc2O)c(O)c1 | inactive

*Q* What value of outcome on Rap guanine nucleotide exchange factor 3 (Homo sapiens) does CC1(COc2ccc(CC3SC(=O)NC3=O)cc2)CCCCC1 (stereo unspecified) have?
*A* inactive

====

assay: qHTS of pediatric cancer cell lines to identify multiple opportunities for drug repurposing: Confirmatory screen for NB-EBc1 cells (AID 1347115); conditions: NB-EBc1 neuroblastoma cells, viability (cytotoxicity); series mostly up to 45.9 µM;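 also: cells exposed to compound for 48 h before the viability read; nearly all actives have a fitted effect of over 45% in size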
Records with an inconclusive call do not appear. Activity calls are given as the source filed them. Calls come from the whole dose curve; as a rule, active = well fitted cell-killing curve with a large enough effect; inconclusive = small, poorly fitted or top-dose-only effect, or effect the other way; inactive = no such curve, though single readings can be large or run the other way.
Please state which outcome applies, choosing from true = active, false = inactive

chemical-string | label-value
CCCCCCCCCCC[C@@H](C[C@@H]1OC(=O)[C@H]1CCCCCC)OC(=O)[C@H](CC(C)C)NC=O | false

Here is the next item to consider.
*Q* Please let me know the test result on file for `C[C@H]1O[C@@H](O[C@H]2CC[C@@]3(C)[C@H](CC[C@@H]4[C@@H]3C[C@@H](O)[C@]3(C)[C@@H](C5=CC(=O)OC5)CC[C@]43O)C2)C[C@H](O)[C@@H]1O[C@H]1C[C@H](O)[C@H](O[C@H]2C[C@H](O)[C@H](O[C@@H]3O[C@H](CO)[C@@H](O)[C@H](O)[C@H]3O)[C@@H](C)O2)[C@@H](C)O1` .
*A* true

====

System: PC26
Experiment: qHTS profiling for inhibitors of Plasmodium falciparum proliferation (AID 504749); also: nearly all actives have a fitted effect of over 60% in size
Details: P. falciparum in erythrocytes, SYBR Green DNA, 72 h; series mostly up to 28.7 µM
Method: NIH National Institute of Allergy and Infectious Diseases [NIAID] NIH Chemical Genomics Center [NCGC] […] Because mature erythrocytes lack DNA, only Plasmodium-derived DNA is detected. NCGC Assay Protocol Summary: The SYBR Green viability assay was adapted from a method described previously (Plouffe et al., 2008). […] The following morning, fluorescence intensity at 485(14) nm excitation and 535(25) nm emission wavelengths was measured on an EnVision (Perkin Elmer) plate reader. […]
Inconclusive results are not listed. Calls of active or inactive are those of the source. Calls follow the shape of the dose curve; as a rule, active = well fitted inhibition curve with a large enough effect; inconclusive = small, poorly fitted or top-dose-only effect; inactive = flat fitted curve, though single readings scatter.
Please state which outcome applies, choosing from active, inactive

// below: answered compounds
compound | label-value
O=C(O)c1ccc(S(=O)(=O)N(Cl)Cl)cc1 | inactive
CN1CCN(c2cc3c(cc2F)c(=O)c(C(=O)O)cn3-c2ccc(F)cc2)CC1 | inactive
CCCCC(CC)COC(=O)/C=C/c1ccc(OC)cc1 (stereo not drawn) | inactive

*Q* Please let me know the test result on file for `CCc1oc2ccccc2c1C(=O)c1cc(I)c(O)c(I)c1` .
*A* inactive

*Q* Please let me know the test result on file for `CCOc1ccccc1C(N)=O` .
*A* inactive

====

tested on: TAB109; assay: qHTS profiling for inhibitors of Plasmodium falciparum proliferation (AID 504749); also: nearly all actives have a fitted effect of over 60% in size; conditions: P. falciparum in erythrocytes, SYBR Green DNA, 72 h; series mostly up to 28.7 µM
Records with an inconclusive call do not appear. Active and inactive are the calls of the source. The call rests on the fitted dose curve; in most records, active means well fitted inhibition curve with a large enough effect; inconclusive means small, poorly fitted or top-dose-only effect; inactive means flat fitted curve, though single readings scatter.
Please state which outcome applies, choosing from active, inactive

*Q* Please let me know the test result on file for `CC(=O)OC[C@H]1O[C@@H](n2ncc(=O)[nH]c2=O)[C@H](OC(C)=O)[C@@H]1OC(C)=O` .
*A* inactive

*Q* Please let me know the test result on file for `CCCN(CCc1cccs1)[C@H]1CCc2c(O)cccc2C1` .
*A* active

*Q* Please let me know the test result on file for `CC(C)(C)NC[C@H](O)COc1cccc2c1CCCC2=O` .
*A* inactive

*Q* Please let me know the test result on file for `Cc1cc(CC(=O)O)c(C)n1-c1ccc(Cl)cc1` .
*A* inactive

*Q* Please let me know the test result on file for `OCc1ccccn1` .
*A* inactive

*Q* Please let me know the test result on file for `OCCOCCN1CCN(C2=Nc3ccccc3Sc3ccccc32)CC1` .
*A* inactive

*Q* Please let me know the test result on file for `Cc1cc(NS(=O)(=O)c2ccc(N)cc2)nc(C)n1` .
*A* inactive
